// reported solubility for each item listed
assay: Aqueous solubility of compound at pH 7.4; assay type: physicochemical; conditions: buffer
property: solubility (µM)

NC(=O)N1c2ccccc2C=Cc2ccccc21 [CARBAMAZEPINE]; 95
CCCSc1ccc2nc(NC(=O)OC)[nH]c2c1 [ALBENDAZOLE]; 6.1

====

assay: Apparent half life in BALB/c mouse at 3 mg/kg, po; assay type: ADME, organism-based; conditions: in vivo, read-out: t1/2(app) (converted)
property: half-life (h)

COc1cc2[nH]c(C)c(-c3ccc(Oc4ccc(OC(F)(F)F)cc4)cc3F)c(=O)c2cc1Cl; 8.5

====

assay: Cmax in BALB/c mouse at 3 mg/kg, po; assay type: ADME, organism-based; set-up: route oral, dose 3 mg/kg; settings: in vivo
property: Cmax

COc1cc2[nH]c(C)c(-c3ccc(Oc4ccc(OC(F)(F)F)cc4)cc3F)c(=O)c2cc1Cl; 310 nM

====

// reported solubility for each item listed
assay: Aqueous solubility of compound at pH 2.4; conditions: buffer
property: solubility

COc1cc2[nH]c(C)c(-c3ccc(C(F)(F)F)cc3)c(=O)c2cc1Cl; < 1 µM
CCCSc1ccc2nc(NC(=O)OC)[nH]c2c1; 100 µM
COc1cc2[nH]c(C)c(-c3ccccc3C)c(=O)c2cc1Cl; 6.9 µM
CNCCCOC(=O)OCOc1c(-c2ccc(C(F)(F)F)cc2)c(C)nc2cc(OC)c(Cl)cc12.Cl; 600 µM
NC(=O)N1c2ccccc2C=Cc2ccccc21 [CARBAMAZEPINE]; 100 µM
CNCCOC(=O)OCOc1c(-c2ccccc2C)c(C)nc2cc(OC)c(Cl)cc12.Cl; > 100 µM
CNCCCOC(=O)OCOc1c(-c2ccccc2C)c(C)nc2cc(OC)c(Cl)cc12.Cl; > 100 µM

====

// reported clearance for each item listed
assay: Clearance in BALB/c mouse at 50 mg/kg, po; format: ADME, organism-based; conditions: in vivo
property: clearance

CNCCCOC(=O)OCOc1c(-c2ccc(C(F)(F)F)cc2)c(C)nc2cc(OC)c(Cl)cc12.Cl; 7.8 mL/min/kg
CNCCOC(=O)OCOc1c(-c2ccc(C(F)(F)F)cc2)c(C)nc2cc(OC)c(Cl)cc12.Cl; 11.6 mL/min/kg
COc1cc2[nH]c(C)c(-c3ccc(C(F)(F)F)cc3)c(=O)c2cc1Cl; 610 mL/min/kg

====

experiment: Apparent half life in BALB/c mouse at 10 mg/kg, po; format: ADME, organism-based; conditions: in vivo, read-out: t1/2(app) (converted)
property: half-life (h)

COc1cc2[nH]c(C)c(-c3ccc(Oc4ccc(OC(F)(F)F)cc4)cc3F)c(=O)c2cc1Cl; 14.5

====

assay: Cmax in BALB/c mouse at 50 mg/kg, po; assay type: ADME, organism-based; parameters: route oral, dose 50 mg/kg; conditions: in vivo
property: Cmax (µM)

CNCCOC(=O)OCOc1c(-c2ccc(C(F)(F)F)cc2)c(C)nc2cc(OC)c(Cl)cc12.Cl; 12

====

assay: Clearance in BALB/c mouse at 3 mg/kg, po; assay type: ADME, organism-based; settings: in vivo
// reported clearance for each item listed
property: clearance (mL/min/kg)

COc1cc2[nH]c(C)c(-c3ccc(Oc4ccc(OC(F)(F)F)cc4)cc3F)c(=O)c2cc1Cl; 26.6
CNCCCOC(=O)OCOc1c(-c2ccc(Oc3ccc(OC(F)(F)F)cc3)cc2F)c(C)nc2cc(OC)c(Cl)cc12.Cl; 0.9

====

assay: Tmax in BALB/c mouse at 50 mg/kg, po; type: ADME, organism-based; conditions: in vivo
property: Tmax (h)

CNCCOC(=O)OCOc1c(-c2ccc(C(F)(F)F)cc2)c(C)nc2cc(OC)c(Cl)cc12.Cl; 4

====

test: Tmax in BALB/c mouse at 3 mg/kg, po; format: ADME, organism-based; settings: in vivo
property: Tmax (h)

COc1cc2[nH]c(C)c(-c3ccc(Oc4ccc(OC(F)(F)F)cc4)cc3F)c(=O)c2cc1Cl; 4

====

assay: Cmax in BALB/c mouse at 10 mg/kg, po; type: ADME, organism-based; parameters: route oral, dose 10 mg/kg; details: in vivo
property: Cmax (nM)

COc1cc2[nH]c(C)c(-c3ccc(Oc4ccc(OC(F)(F)F)cc4)cc3F)c(=O)c2cc1Cl; 460

====

assay: Tmax in BALB/c mouse at 10 mg/kg, po; type: ADME, organism-based; conditions: in vivo
property: Tmax

COc1cc2[nH]c(C)c(-c3ccc(Oc4ccc(OC(F)(F)F)cc4)cc3F)c(=O)c2cc1Cl; 8 h

====

assay: Solubility of the compound in 0.5% hydroxyethylcellulose
property: solubility

CNCCOC(=O)OCOc1c(-c2ccccc2C)c(C)nc2cc(OC)c(Cl)cc12.Cl; > 21 mM
CNCCCOC(=O)OCOc1c(-c2ccccc2C)c(C)nc2cc(OC)c(Cl)cc12.Cl; > 20 mM
CNCCOC(=O)OCOc1c(-c2ccc(C(F)(F)F)cc2)c(C)nc2cc(OC)c(Cl)cc12.Cl; > 5.6 mM
CNCCCOC(=O)OCOc1c(-c2ccc(Oc3ccc(OC(F)(F)F)cc3)cc2F)c(C)nc2cc(OC)c(Cl)cc12.Cl; > 5.5 mM
CNCCCOC(=O)OCOc1c(-c2ccc(C(F)(F)F)cc2)c(C)nc2cc(OC)c(Cl)cc12.Cl; > 5.5 mM

====

experiment: Clearance in BALB/c mouse at 10 mg/kg, po; format: ADME, organism-based; settings: in vivo
property: clearance (mL/min/kg)

COc1cc2[nH]c(C)c(-c3ccc(Oc4ccc(OC(F)(F)F)cc4)cc3F)c(=O)c2cc1Cl; 34.9
CNCCCOC(=O)OCOc1c(-c2ccc(Oc3ccc(OC(F)(F)F)cc3)cc2F)c(C)nc2cc(OC)c(Cl)cc12.Cl; 1.4
